System: ChaGo-K-1
Assay: relative viability (nuclei count vs DMSO), 5 days (fraction); higher = more cells survive
Conditions: first compound 8 µM
Define the label as met when relative viability is strictly less than 0.9 and as not met in all remaining cases.

[[record]]
compound = "Nc1cccc2c1CN(C1CCC(=O)NC1=O)C2=O (configuration not stated) [Lenalidomide] + O=C(c1cc(Cc2n[nH]c(=O)c3ccccc23)ccc1F)N1CCN(C(=O)C2CC2)CC1 [Olaparib] (partner 8 µM)"
target_or_system = "ChaGo-K-1"
classification = "met"

[[record]]
compound = "Nc1cccc2c1CN(C1CCC(=O)NC1=O)C2=O (configuration not stated) [Lenalidomide] + CS(=O)(=O)N1CCN(Cc2cc3nc(-c4cccc5[nH]ncc45)nc(N4CCOCC4)c3s2)CC1 [Pictilisib] (partner 1 µM)"
target_or_system = "ChaGo-K-1"
classification = "met"

[[record]]
compound = "Nc1cccc2c1CN(C1CCC(=O)NC1=O)C2=O (configuration not stated) [Lenalidomide] + O=C(CCCCCCC(=O)Nc1ccccc1)NO [Vorinostat] (partner 1 µM)"
target_or_system = "ChaGo-K-1"
classification = "met"

[[record]]
compound = "Nc1cccc2c1CN(C1CCC(=O)NC1=O)C2=O (configuration not stated) [Lenalidomide] + C[C@@H](Oc1cc(-c2cnn(C3CCNCC3)c2)cnc1N)c1c(Cl)ccc(F)c1Cl [Crizotinib] (partner 1 µM)"
target_or_system = "ChaGo-K-1"
classification = "not met"

[[record]]
compound = "Nc1cccc2c1CN(C1CCC(=O)NC1=O)C2=O (configuration not stated) [Lenalidomide] + Nc1nc2[nH]cc(CCc3ccc(C(=O)N[C@@H](CCC(=O)O)C(=O)O)cc3)c2c(=O)[nH]1 [Pemetrexed] (partner 0.2 µM)"
target_or_system = "ChaGo-K-1"
classification = "met"


Shifting focus to the compound that follows.
(Q) I'd appreciate it if you could check whether Nc1cccc2c1CN(C1CCC(=O)NC1=O)C2=O (configuration not stated) [Lenalidomide] + CC(=O)c1c(C)c2cnc(Nc3ccc(N4CCNCC4)cn3)nc2n(C2CCCC2)c1=O [Palbociclib] (partner 0.5 µM) has relative viability smaller than 0.9.
(A) not met
